target: binding partner of C5A (XPA23); assay: Biacore, K-off
property_measured: fold difference in affinity vs original (fold)
The response must be a number in fold with no trailing unit.

Some binders with known fold difference in affinity vs original results, for comparison:
binder: C5A (XPA23) VH P53N (antibody, V domains shown) VH: EVQLLESGGGLVQPGGSLRLSCAASGFTFSKYFMFWVRQAPGKGLEWVSVISNSGGMTRYADSVKGRFTISRDNSKNTLYLQMNSLRAEDTAVYYCARVGYGGNSDYWGQGTLVTVSS VL: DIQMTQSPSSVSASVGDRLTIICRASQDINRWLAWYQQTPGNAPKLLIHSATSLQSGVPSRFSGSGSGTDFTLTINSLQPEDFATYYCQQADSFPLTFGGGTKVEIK
unit_label: fold
fold difference in affinity vs original: 0.06

binder: C5A (XPA23) VH G100T (antibody, V domains shown) VH: EVQLLESGGGLVQPGGSLRLSCAASGFTFSKYFMFWVRQAPGKGLEWVSVISPSGGMTRYADSVKGRFTISRDNSKNTLYLQMNSLRAEDTAVYYCARVTYGGNSDYWGQGTLVTVSS VL: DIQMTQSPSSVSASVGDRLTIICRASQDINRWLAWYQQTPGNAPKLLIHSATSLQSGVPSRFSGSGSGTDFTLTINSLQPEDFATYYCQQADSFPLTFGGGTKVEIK
unit_label: fold
fold difference in affinity vs original: 0.12

binder: C5A (XPA23) VH I51H (antibody, V domains shown) VH: EVQLLESGGGLVQPGGSLRLSCAASGFTFSKYFMFWVRQAPGKGLEWVSVHSPSGGMTRYADSVKGRFTISRDNSKNTLYLQMNSLRAEDTAVYYCARVGYGGNSDYWGQGTLVTVSS VL: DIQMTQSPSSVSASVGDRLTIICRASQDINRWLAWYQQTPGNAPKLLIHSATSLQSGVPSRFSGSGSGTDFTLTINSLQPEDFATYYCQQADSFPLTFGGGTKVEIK
unit_label: fold
fold difference in affinity vs original: 0.08

binder: C5A (XPA23) VH P53E (antibody, V domains shown) VH: EVQLLESGGGLVQPGGSLRLSCAASGFTFSKYFMFWVRQAPGKGLEWVSVISESGGMTRYADSVKGRFTISRDNSKNTLYLQMNSLRAEDTAVYYCARVGYGGNSDYWGQGTLVTVSS VL: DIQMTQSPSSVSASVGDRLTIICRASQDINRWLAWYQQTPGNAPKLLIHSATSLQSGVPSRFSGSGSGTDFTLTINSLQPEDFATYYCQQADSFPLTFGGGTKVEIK
unit_label: fold
fold difference in affinity vs original: 0.03

# evaluate next
Consider C5A (XPA23) VH R59K (antibody, V domains shown) VH: EVQLLESGGGLVQPGGSLRLSCAASGFTFSKYFMFWVRQAPGKGLEWVSVISPSGGMTKYADSVKGRFTISRDNSKNTLYLQMNSLRAEDTAVYYCARVGYGGNSDYWGQGTLVTVSS VL: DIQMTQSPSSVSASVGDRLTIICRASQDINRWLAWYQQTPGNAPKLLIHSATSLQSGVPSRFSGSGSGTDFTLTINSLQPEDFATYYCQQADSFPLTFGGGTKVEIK . Its measured fold difference in affinity vs original is 0.94

Data origin, for the record: patent US20110118447A1
